This collection of values is drawn from patent US20180099931A1.

- TEST SYSTEM: F508delCFTR (Homo sapiens, UniProt P13569, DEL508-508)
- Construct: expressed in transfected cells; host or cells: CFBE41o- human lung-derived epithelial cells (CFBE4lo-F508delCFTR-HRP), doxycycline-inducible
- Sequence (P13569 with tags, fused parts or gaps DEL508-508): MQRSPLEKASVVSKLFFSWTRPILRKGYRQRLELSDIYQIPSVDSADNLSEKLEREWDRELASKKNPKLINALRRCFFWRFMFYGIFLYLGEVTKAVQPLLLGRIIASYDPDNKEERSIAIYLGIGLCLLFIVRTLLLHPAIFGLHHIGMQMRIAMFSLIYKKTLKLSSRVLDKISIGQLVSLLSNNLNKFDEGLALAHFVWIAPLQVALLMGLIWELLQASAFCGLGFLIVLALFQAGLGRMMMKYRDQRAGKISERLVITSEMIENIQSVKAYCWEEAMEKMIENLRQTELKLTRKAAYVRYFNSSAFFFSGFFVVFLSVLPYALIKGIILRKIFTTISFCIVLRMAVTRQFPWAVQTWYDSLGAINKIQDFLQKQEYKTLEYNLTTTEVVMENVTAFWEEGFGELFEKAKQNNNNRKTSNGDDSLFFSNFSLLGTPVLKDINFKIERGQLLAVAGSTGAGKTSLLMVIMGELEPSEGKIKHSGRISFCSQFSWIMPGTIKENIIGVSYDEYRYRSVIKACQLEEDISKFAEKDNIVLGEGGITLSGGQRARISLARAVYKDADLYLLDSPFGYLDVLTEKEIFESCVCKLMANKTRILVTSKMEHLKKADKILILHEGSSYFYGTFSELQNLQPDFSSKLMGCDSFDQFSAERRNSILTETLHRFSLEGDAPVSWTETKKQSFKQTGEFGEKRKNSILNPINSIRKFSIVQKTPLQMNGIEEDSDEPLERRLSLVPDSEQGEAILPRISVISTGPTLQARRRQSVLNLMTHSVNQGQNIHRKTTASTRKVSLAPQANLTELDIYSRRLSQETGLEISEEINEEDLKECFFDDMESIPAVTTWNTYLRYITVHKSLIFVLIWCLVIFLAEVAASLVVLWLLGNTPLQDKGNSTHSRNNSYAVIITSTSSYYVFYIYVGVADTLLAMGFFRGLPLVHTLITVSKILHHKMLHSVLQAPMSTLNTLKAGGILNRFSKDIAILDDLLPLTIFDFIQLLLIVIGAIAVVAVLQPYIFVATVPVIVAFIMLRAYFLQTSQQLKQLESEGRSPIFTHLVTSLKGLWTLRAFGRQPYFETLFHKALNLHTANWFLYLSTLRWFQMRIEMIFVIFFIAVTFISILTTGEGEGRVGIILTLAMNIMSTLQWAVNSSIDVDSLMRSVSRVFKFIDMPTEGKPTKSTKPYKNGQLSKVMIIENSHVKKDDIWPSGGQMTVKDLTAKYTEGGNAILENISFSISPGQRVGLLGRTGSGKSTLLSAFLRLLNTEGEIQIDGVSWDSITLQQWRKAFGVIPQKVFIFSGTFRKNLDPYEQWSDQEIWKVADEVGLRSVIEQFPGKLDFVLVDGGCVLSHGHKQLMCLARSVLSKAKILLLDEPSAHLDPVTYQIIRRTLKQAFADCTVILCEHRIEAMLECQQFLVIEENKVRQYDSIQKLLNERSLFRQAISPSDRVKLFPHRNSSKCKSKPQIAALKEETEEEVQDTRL
- MEASUREMENT DESCRIPTION: Cell Surface Expression-Horse Radish Peroxidase (CSE-HRP) Assay;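 note: percent of the 2 µM on-plate positive control corrector response above DMSO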
- Type: cell-based
- CONDITION INFO: test compound without co-corrector; maximum at any tested concentration, normalized to on-plate positive control; read-out: Maximum % activity (without co-corrector)
RECORDED ENDPOINT: Emax

Parameter requested: Emax. Apply to each item below.
1. COc1cc(C(F)(F)F)ccc1CN[C@H]1[C@H](C(C)(C)C)[C@@H](C(=O)O)N(C(=O)OC(C)C)[C@H]1c1ccccc1C(C)C [II-561]
2. CO[C@@H](C(=O)N1[C@H](c2cccnc2N(C)C)[C@H](Nc2cc(C(F)(F)F)cc(C)n2)[C@@H](C(C)(C)C)[C@@H]1C(=O)O)c1ccccc1 (racemic) [III-89]
3. COc1ccc(Br)cc1CN[C@H]1[C@H](C(C)(C)C)[C@@H](C(=O)O)N(C(=O)C2CCCCC2)[C@H]1c1ccccc1 [III-118]

> 200%
< 100%
> 200%

Would you mind giving Emax for every molecule in the list below?
1. CC(C)(C)[C@@H]1[C@@H](NCc2cc(Br)ccc2C#N)[C@@H](c2ccccc2)N(C(=O)C2CCCCC2)[C@H]1C(=O)O (racemic) [III-109]
2. COc1ccc(C(C)(C)C)cc1CN[C@H]1[C@H](C(C)(C)C)[C@@H](C(=O)O)N(C(=O)c2cnn(-c3cccc(C)c3)c2C(C)C)[C@H]1c1ccccc1 [III-194]
3. COc1ccccc1[C@@H]1[C@H](NCc2cccc3c2OC(F)(F)O3)[C@@H](C(C)(C)C)[C@H](C(=O)O)N1C(=O)C1CCCCC1 (racemic) [III-45]
4. COc1ncc(C(F)(F)F)cc1CN[C@H]1[C@H](C(C)(C)C)[C@@H](C(=O)O)N(C(=O)OC(C)C)[C@H]1c1ccccc1C [II-580]
5. CC(C)(C)[C@H]1[C@H](NCc2cc(Br)ccc2OC(F)F)[C@H](c2ccccc2)N(C(=O)C2CCCCC2)[C@@H]1C(=O)O [III-131]
6. COc1ncc(C(F)(F)F)cc1N[C@H]1[C@H](C(C)(C)C)[C@@H](C(=O)O)N(C(=O)C2C3CCCC32)[C@H]1c1cccnc1N(C)C (stereo partly drawn) [II-483]
7. COc1ccc(C(C)(C)C)cc1CN[C@H]1[C@H](C(C)(C)C)[C@@H](C(=O)O)N(C(=O)C2(c3cccc(Cl)c3)COC2)[C@H]1c1ccccc1 [II-497]
8. CC(C)(C)[C@@H]1[C@@H](NCc2cc(C(F)(F)F)ccc2OCCO)[C@@H](c2ccccc2)N(C(=O)C2CCCCC2)[C@H]1C(=O)O (racemic) [III-66]

1. < 100%
2. 100 to 200%
3. < 100%
4. > 200%
5. < 100%
6. < 100%
7. < 100%
8. < 100%

Give reported Emax value for COc1cccc([C@@H]2[C@H](Nc3cc(C(F)(F)F)cc(C)n3)[C@@H](C(C)(C)C)[C@H](C(=O)O)N2C(=O)C2C3COCC32)n1 (mixture of isomers) [III-62]
< 100%
